Target: Protein RecA (Mycobacterium tuberculosis (strain ATCC 25618 / H37Rv))
Assay: Mtb RecA intein splicing inhibitors, primary screen, biochemical, fluorescence, HTS (AID 2221);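 further: 0% = vehicle wells and 100% = reference inhibitor control wells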
Conditions: cell-free RecA intein splicing, concentration not given here
Hit rate of the full screen: of about 290,000 compounds, about 2,200 (0.76%) were called active. No stated cut-off is given here; in the data, active means inhibition above about 30%; inconclusive means no clear call, values can overlap the other calls; inactive means below that. Only a selection was taken, and actives are over-represented in it overall.
The reply should be one of these categories: True = active, False = inactive

# example entries with known answers
O=C(CCl)N(Cc1cccc([N+](=O)[O-])c1)c1cccc(Cl)c1 : True
O=C(CCN1C(=O)/C(=C/c2cccs2)SC1=S)NNC(=O)c1cccc(O)c1 : False

Read the next record carefully.
Prompt: I would be grateful if you could indicate the recorded call for COc1ccccc1C(=O)NNC(=O)CCN1C(=O)/C(=C\c2ccccc2)SC1=S .
Response: False

----------
Target: Protein RecA (Mycobacterium tuberculosis (strain ATCC 25618 / H37Rv))
Test: Mtb RecA intein splicing inhibitors, primary screen, biochemical, fluorescence, HTS (AID 2221);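 further: 0% = vehicle wells and 100% = reference inhibitor control wells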
Conditions: cell-free RecA intein splicing, concentration not given here
In all, about 290,000 compounds went through this assay and about 2,200 (0.76%) were called active. No stated cut-off is given here; in the data, active means inhibition above about 30%; inconclusive means no clear call, values can overlap the other calls; inactive means below that. Only a selection was taken, and actives are over-represented in it overall.
The categories you may choose from are 1 (yes) (active), 0 (no) (inactive)

O=C(Cc1ccccc1)Nc1ccc(C(=O)Nc2ccccc2C(=O)O)cc1 : 0 (no)

Prompt: Which result was noted for this compound in the test: O=C(CCN1C(=O)[C@@H]2Cc3ccccc3CN2C1=O)NCc1ccccc1
Response: 0 (no)

Prompt: Could you check what this test reported for COc1ccc(-c2nnc(SC(=O)N3c4ccccc4Sc4ccccc43)o2)cc1 ?
Response: 1 (yes)

Prompt: Recorded test outcome, item Nc1nc(-c2ccccc2)cc(-c2ccccc2)n1
Response: 0 (no)

Prompt: Hello, I am checking results. What call was entered for COC(=O)C1=C(C(=O)OC)C(c2cc([N+](=O)[O-])ccc2O)c2sc(=O)[nH]c2S1 (centres undefined) ?
Response: 0 (no)

Prompt: Recorded test call requested for Cc1nn(-c2ccccc2)c2c1C(c1ccc(F)cc1)C(C#N)=C(N)O2 (centres undefined)
Response: 1 (yes)

----------
Recorded inhibition by entry
Molecular target: Protein RecA (Mycobacterium tuberculosis (strain ATCC 25618 / H37Rv)) (UniProt P9WHJ3)
Sequence (P9WHJ3 whole entry, looked up): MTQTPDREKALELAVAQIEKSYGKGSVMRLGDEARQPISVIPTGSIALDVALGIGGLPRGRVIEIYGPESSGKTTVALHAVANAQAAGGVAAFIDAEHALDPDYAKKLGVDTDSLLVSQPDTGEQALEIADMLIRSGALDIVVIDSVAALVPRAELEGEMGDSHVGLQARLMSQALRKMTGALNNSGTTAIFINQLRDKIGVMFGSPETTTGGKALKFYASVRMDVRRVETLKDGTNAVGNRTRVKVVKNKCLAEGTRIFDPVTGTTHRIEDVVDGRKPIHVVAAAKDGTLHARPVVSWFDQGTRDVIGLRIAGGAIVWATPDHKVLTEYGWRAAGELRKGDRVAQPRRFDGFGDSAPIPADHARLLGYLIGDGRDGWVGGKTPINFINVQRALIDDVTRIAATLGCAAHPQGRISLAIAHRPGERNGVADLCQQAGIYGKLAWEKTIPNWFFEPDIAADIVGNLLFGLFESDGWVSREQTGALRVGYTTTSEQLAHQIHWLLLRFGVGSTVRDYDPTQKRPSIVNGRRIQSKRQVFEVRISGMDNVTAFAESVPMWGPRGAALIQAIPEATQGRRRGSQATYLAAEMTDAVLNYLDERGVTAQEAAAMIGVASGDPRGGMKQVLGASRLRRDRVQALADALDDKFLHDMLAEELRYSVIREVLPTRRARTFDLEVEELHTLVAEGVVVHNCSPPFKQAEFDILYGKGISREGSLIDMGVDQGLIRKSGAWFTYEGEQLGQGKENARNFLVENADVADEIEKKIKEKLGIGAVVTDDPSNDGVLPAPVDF
Assay: Mtb RecA intein splicing inhibitors, primary screen, biochemical, fluorescence, HTS (AID 2221);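 further: 0% = vehicle wells and 100% = reference inhibitor control wells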
Settings: cell-free RecA intein splicing, hits give high values, concentration not given here
The whole screen tested about 290,000 compounds, of which about 2,200 (0.76%) were called active. What follows is part of a selection rich in actives, with near analogues and random picks from the rest.
Use % as the unit, but write only the number.

Guide cases for inhibition, answers given:
O=C(C(Cc1ccccc1)n1cccc1)N1CCN(C2CCCCC2)CC1 (stereo unspecified) : 1.21
COCCc1nn2c(=O)cc(COC(=O)c3cc(OC)c(OC)c(OC)c3)nc2s1 : 0.818

Reported inhibition of C=CS(=O)c1sc(Cl)c(N2CCOCC2)c1[N+](=O)[O-] (stereo unspecified) : 33.8

# compound COc1ccc(C(=O)NC2CC(C)(C)Cc3c2cnn3-c2ccccc2C)o1 (stereo unspecified) ; its inhibition = 3.96

Per the records, this compound ( CCOC(=O)c1cc(S(=O)(=O)NCCc2ccc(OC)c(OC)c2)cn1C ) has inhibition equal to -0.521

Just so you know, measured inhibition for Cc1cc(C)c(NC(=O)CN2C(=O)NC(Cc3ccccc3)C2=O)c(C)c1 (stereo unspecified) came out at 0.835
